Experiment: Fluorescence spectra and quantum yield of rhodol fluorophores, rhodamine 6G as reference
Format: physicochemical
Conditions: 50 mM aqueous phosphate buffer at pH about 8.0; N.D. = no fluorescence detected

molecule | Em Max (nm)
CCCCN(CCCC)c1ccc2c(c1)Oc1cc(O)ccc1C21OC(=O)c2ccccc21 (stereo not drawn) | 553
O=C1OC2(c3ccc(O)cc3Oc3cc(NCc4ccccc4)ccc32)c2ccccc21 (stereo not drawn) | 529
CCCCNc1ccc2c(c1)Oc1cc(O)ccc1C21OC(=O)c2ccccc21 (stereo not drawn) | 533
CCCNc1ccc2c(c1)Oc1cc(O)ccc1C21OC(=O)c2ccccc21 (stereo not drawn) | 531
O=C1OC2(c3ccc(O)cc3Oc3cc(N4CCCCC4)ccc32)c2ccccc21 (stereo not drawn) | 555
CCCNc1ccc2c(c1)Oc1cc(OCOC)ccc1C21OC(=O)c2ccccc21 (stereo not drawn) | 532
Nc1ccc2c(c1)Oc1cc(O)ccc1C21OC(=O)c2ccccc21 (stereo not drawn) | 516
C=CC(=O)Nc1ccc2c(c1)Oc1cc(O)ccc1C21OC(=O)c2ccccc21 (stereo not drawn) | 524
CN(C)c1ccc2c(c1)Oc1cc(O)ccc1C21OC(=O)c2ccccc21 (stereo not drawn) | 544
CCN(CC)c1ccc2c(c1)Oc1cc(O)ccc1C21OC(=O)c2ccccc21 (stereo not drawn) | 549
O=C(Nc1ccc2c(c1)Oc1cc(O)ccc1C21OC(=O)c2ccccc21)c1ccccc1 (stereo not drawn) | 525
COc1ccc2c(c1)Oc1cc(N)ccc1C21OC(=O)c2ccccc21 (stereo not drawn) | 516
